Data provenance: PubChem BioAssay (NCI)

System: HCT-116 colon
run_description: NCI-60 one-dose screen, 48 h (100 = growth as untreated, 0 = no growth, -100 = all killed)
assay_setup: 10 µM
This is part of a sample that, as a whole, favours compounds with a hit. Of some 83,000 tested, about 20% had one in any assay.
Please assign not fulfilled whenever growth is at or above 80%, and fulfilled whenever it is below.

>>> label_class("COc1ccc(C(=O)/C=C/c2cc(-c3cc(OC)c(OC)c(OC)c3)n[nH]2)cc1")
"fulfilled"
>>> label_class("Nc1nc(N=Nc2ccc(O)cc2)cc(=O)[nH]1")
"not fulfilled"
>>> label_class("Cc1ccc(NC(=O)CSc2nc3ccccc3c(=O)n2CCc2ccccc2)c(C(=O)O)c1")
"not fulfilled"
>>> label_class("CC(=O)n1c(-c2ccc(Cl)c(Cl)c2)cn(-c2ccc(Cl)cc2)c1=O")
"fulfilled"
>>> label_class("CC(C)(C)c1ccc(N2CSC(=S)N(c3ccc(C(C)(C)C)cc3)C2)cc1")
"not fulfilled"
>>> label_class("Nc1c(C(=O)Nc2cccc3ccccc23)sc2nc3c(cc12)C(=O)CCC3")
"fulfilled"
>>> label_class("N=c1c2c(-c3ccccc3)c(-c3ccccc3)n(Cc3ccccc3)c2ncn1CCCO")
"fulfilled"
>>> label_class("CCCCCCCCCCCCCCCCCC(=O)OCCCCCCC")
"not fulfilled"

---

Tested on: MDA-MB-435 melanoma
run_description: NCI-60 one-dose screen, 48 h (100 = growth as untreated, 0 = no growth, -100 = all killed)
assay_setup: 10 µM
About 83,000 compounds went through this panel and 20% of them were active in at least one assay; those are over-represented in the sample as a whole.
Below is a list of entries, each paired with its recorded growth value.
assay_endpoint: growth (%)

>>> observed("COc1cc(Nc2ccnc(NCCCNc3ccnc4cc(Cl)ccc34)n2)cc(OC)c1")
-81.9
>>> observed("O=C1c2ccc3c4c(ccc(c24)C(=O)N1CCNCc1ccccc1)C(=O)N(CCNCc1ccccc1)C3=O")
-75.6
>>> observed("CCOC(=O)C(CSC(c1ccccc1)(c1ccccc1)c1ccccc1)NC(=O)C(CSC(c1ccccc1)(c1ccccc1)c1ccccc1)NC(c1ccccc1)(c1ccccc1)c1ccccc1 (stereo not drawn)")
86.1
>>> observed("CCCCC(CCCCCC(CCCC)NCc1ccc2c(c1)OCO2)NCc1ccc2c(c1)OCO2 (stereo not drawn)")
-82.4
>>> observed("O=C(Nc1cccc(-n2cc(-c3ccncc3)c(-c3ccc(O)c(Cl)c3)n2)c1)Nc1ccc(Cl)c(Cl)c1")
-16.7
>>> observed("C#Cc1ccc(-n2c(/C=C/c3cc(OC)cc(OC)c3)nc3ncccc3c2=O)cc1")
79.1
>>> observed("CN(C)CCN1C(=O)c2cccc3c(-c4ccc5ncn(C6CCCCC6)c5c4)ccc(c23)C1=O")
39.9
>>> observed("COc1cc(/C=C/C(=O)c2ccc(Cl)cc2)ccc1OS(=O)(=O)c1ccc(C)cc1")
81.2

---

Form field: growth (one value per entry).
System: SF-539 CNS
run_description: NCI-60 one-dose screen, 48 h (100 = growth as untreated, 0 = no growth, -100 = all killed)
assay_setup: 10 µM
About 83,000 compounds went through this panel and 20% of them were active in at least one assay; those are over-represented in the sample as a whole.
assay_endpoint: growth (%)

>>> observed("N#Cc1cccc(OCc2nc(N)nc(N)c2-c2ccc(Cl)c(Cl)c2)c1")
22.6
>>> observed("Cn1c(N)c(N=Nc2ccc(S(=O)(=O)Nc3nccs3)cc2)c(=O)n(C)c1=O")
98.3
>>> observed("O=C1ON=[N+](c2ccc(Cc3ccc([N+]4=NOC(=O)C4CN4CCOCC4)cc3)cc2)C1CN1CCOCC1 (stereo not given)")
77.5
>>> observed("COc1ccc2c(c1)N(CCO)C1=C(C(=O)OC1)C2c1cc(OC)c(OC)c(OC)c1 (stereo not given)")
-6.38
>>> observed("COc1cc2nc(Nc3cccc(C(=O)O)c3)nc(N)c2cc1OC")
97
>>> observed("O=C(Nc1nc(-c2ccccc2Cl)cs1)c1cc(-c2ccc(Cl)cc2)nc2ccc(Cl)cc12")
-5.27
>>> observed("COc1ccc2c(c1OC)O/C(=C\\c1ncc([N+](=O)[O-])n1C)C2=O")
63.5
>>> observed("COc1ccc(-c2nn(-c3cccc(NC(=O)Nc4ccccc4)c3)cc2-c2ccncc2)cc1Cl")
-59.1
>>> observed("COc1cc(C)ccc1C(=O)c1ccc(C)cc1OC")
3.62
>>> observed("ClC(Cl)(Cl)c1nc2nccnc2[nH]1")
99.6
